ASSAY NOTES: In vivo biodistribution of [^203Pb]VMT01 in B16-F10 melanoma xenograft model
Parameters: species or system athymic nude mice
CONDITION CONTEXT: both sexes, athymic nude, mouse, tumor, intravenous, 74 KBq, total radioactivity, 0.5 h post-injection, tail vein, read-out: Biodistribution, Tumor, Average
Procedure: Radiolabeling of VMT01 was carried out according to published methods. Briefly, ^203Pb^2+ was purified on 50 mg Pb-resin (Eichrom Technologies, Lisle, IL, USA) and eluted into reaction vessel using 0.5 M sodium acetate (NaOAc) pH = 6 buffer. […] Biodistribution of [^203Pb]VMT01 was determined in a B16-F10 murine melanoma xenograft model in athymic nude mice. […] Radioactivity in tumor and organs was measured on a Cobra II automated gamma counter. […]
Where a SMILES comes first, the peptide text is derived from it. Bridges are numbered along the chain shown (N, C = ends). Triazole bridges read from a SMILES are 1,4-linked. Side-chain parts run from the residue outwards. [ ]: non-standard residue; d: D form. The star is where a group is joined. X1 = NC(=O)CN1CCN(CC(=O)O)CCN(CC(=O)*)CCN(CC(=O)O)CC1; Lys(N3) = [N-]=[N+]=NCCCC[C@H](N)C(=O)O; Nle = CCCC[C@H](N)C(=O)O; Pra = C#CC[C@H](N)C(=O)O; AEEA = NCCOCCOCC(=O)O
QUANTITY: tissue uptake at 0.5 h (%ID/g)
Report the value in %ID/g with no unit label.

What the record says about CCCC[C@H](NC(C)=O)C(=O)N[C@H]1Cc2cn(nn2)CCCC[C@@H](C(=O)N[C@@H](CCCCNC(=O)COCCOCCNC(=O)CN2CCN(CC(=O)O)CCN(CC(N)=O)CCN(CC(=O)O)CC2)C(N)=O)NC(=O)[C@H](Cc2c[nH]c3ccccc23)NC(=O)[C@H](CCCNC(=N)N)NC(=O)[C@@H](Cc2ccccc2)NC(=O)[C@H](Cc2c[nH]cn2)NC1=O [[^203Pb]VMT01, metal not drawn] (Ac-[Nle][Pra]H[dF]RW[Lys(N3)]K([AEEA-X1])-NH2; triazole 2-7) : tissue uptake at 0.5 h is 5.5
